system: mouse RORγ (Mus musculus, UniProt P51450)
Construct: mouse RORγ, from Ile251 to Lys516; expressed in transfected cells; host or cells: CHO cells (Chinese hamster ovary), transient co-transfection with pG5-Luc
Sequence (P51450 251-516): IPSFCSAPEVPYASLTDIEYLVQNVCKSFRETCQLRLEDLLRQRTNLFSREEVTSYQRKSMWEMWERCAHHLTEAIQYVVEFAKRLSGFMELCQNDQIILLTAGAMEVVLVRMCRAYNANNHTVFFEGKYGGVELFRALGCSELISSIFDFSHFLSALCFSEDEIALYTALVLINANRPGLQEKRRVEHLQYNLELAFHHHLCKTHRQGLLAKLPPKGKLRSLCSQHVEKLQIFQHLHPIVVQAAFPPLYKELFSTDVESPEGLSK
experiment_notes: In vitro assay of inhibitory effect against RORγ transcriptional activity (GAL4-mRORγ LBD luciferase reporter gene assay in CHO cells)
Type: cell-based
test_parameters: GAL4-mRORγ LBD luciferase reporter, CHO cells; read-out: LUC EC50 mRORγ
measured_attribute: EC50 (µM)

CC(C)C1=CN([C@@H]2CCC[C@@H]2C(=O)O)C(=O)N[C@@]1(C)c1ccc(CCC(C)(C)C)c(Cl)c1 :: 0.534
CC(C)C1=CN(CCC(=O)O)C(=O)N[C@@]1(C)c1ccc(CC2CCCCC2)c(Cl)c1 :: 0.014

[a] CCOC(=O)C1CNCC1N1C=C(C(C)C)[C@](C)(c2ccc(CCC(C)(C)C)c(Cl)c2)NC1=O (single isomer, unassigned) [Example 245]
[b] COCCC1=CN(CCC(=O)O)C(=O)N[C@@]1(C)c1ccc(CCC(C)(C)C)c(Cl)c1
// query Quick check, higher EC50 between a and b ? Give the label under which the chosen entry appears.
// result a

* * *

system: mouse RORγ (Mus musculus)
Construct: mouse RORγ, from Ile251 to Lys516; expressed in transfected cells; host or cells: CHO cells (Chinese hamster ovary), transient co-transfection with pG5-Luc
experiment_notes: In vitro assay of inhibitory effect against RORγ transcriptional activity (GAL4-mRORγ LBD luciferase reporter gene assay in CHO cells)
Type: cell-based
test_parameters: GAL4-mRORγ LBD luciferase reporter, CHO cells; read-out: LUC EC50 mRORγ
measured_attribute: EC50 (µM)

These recorded examples may help you get a feel for the data.
CC(C)(C)CCc1ccc([C@]2(C)NC(=O)N(CCC(=O)O)C=C2C2CC(C)(C)OC(C)(C)C2)cc1Cl :: 1.5
CC(C)(C)CCc1ccc([C@]2(C)NC(=O)N(CCC(=O)O)C=C2CCS(C)(=O)=O)cc1Cl :: 1.31
COCCC1=CN(c2ccc(C(=O)O)cc2)C(=O)N[C@@]1(C)c1ccc([C@H]2C[C@@H](C(C)(C)C)C2)c(Cl)c1 :: 0.019

[I] CC(C)C1=CN(CCC(=O)O)C(=O)N[C@@]1(C)c1ccc(C=C2CCCCC2)c(Cl)c1
[II] COCC(C)C1=CN(c2ccc(C(=O)O)cc2)C(=O)N[C@@]1(C)c1ccc(CCC(C)(C)C)c(Cl)c1 (single isomer, unassigned) [Example 307]
// query Quick check, higher EC50 between I and II ? Give the label under which the chosen entry appears.
// result I

* * *

system: mouse RORγ (Mus musculus, UniProt P51450)
Construct: mouse RORγ, from Ile251 to Lys516; expressed in transfected cells; host or cells: CHO cells (Chinese hamster ovary), transient co-transfection with pG5-Luc
experiment_notes: In vitro assay of inhibitory effect against RORγ transcriptional activity (GAL4-mRORγ LBD luciferase reporter gene assay in CHO cells)
Format: cell-based
test_parameters: GAL4-mRORγ LBD luciferase reporter, CHO cells; read-out: LUC EC50 mRORγ
Method: In Vitro Assay of Inhibitory Effect Against RORγ Transcriptional Activity Inhibitory effect of a test article on transcriptional activity of RORγ was measured by means of the following reporter gene assay. […] RORγ transcriptional activity was detected as the intracellular luciferase activity using SteadyLite HTS Reporter Gene Assay System (Perkin Elmer). […] After the incubation at room temperature for 10 minutes, luminescence of each well was measured by a microplate reader. […]
measured_attribute: EC50 (nM)

CC(C)C1=CN(C(C)(C)CC(=O)O)C(=O)N[C@@]1(C)c1ccc(CCC(C)(C)C)c(Cl)c1 :: 43
CC(C)(C)CCc1ccc([C@]2(C)NC(=O)N(C3CC(C)(C)C3)C=C2[C@H]2C[C@H](C(=O)O)C2)cc1Cl (single isomer, unassigned) :: 34

[I] COCCC1=CN(c2ccc(C(=O)O)cc2)C(=O)N[C@@]1(C)c1ccc(CC2CCCCC2)c(Cl)c1
[II] COCCC1=CN(C23CC(C(=O)O)(C2)C3)C(=O)N[C@@]1(C)c1ccc(CCC(C)(C)C)c(C(F)(F)F)c1
[III] CC(C)C1=CN(CCC(=O)O)C(=O)N[C@@]1(C)c1ccc(C=C2CCC(C)(C)CC2)c(Cl)c1
[IV] CC(C)C1=CN(CC(C)C(=O)O)C(=O)N[C@@]1(C)c1ccc(CCC(C)(C)C)c(Cl)c1 (single isomer, unassigned) [Example 300]
[V] COc1cc(N2C=C(C(C)C)[C@](C)(c3ccc(CCC(C)(C)C)c(Cl)c3)NC2=O)ccc1C(=O)O
// query Please rank these molecules by EC50 in descending order. Write the labels, ordered according to the request.
// result II, III, V, IV, I

* * *

system: mouse RORγ (Mus musculus, UniProt P51450)
Construct: mouse RORγ, from Ile251 to Lys516; expressed in transfected cells; host or cells: CHO cells (Chinese hamster ovary), transient co-transfection with pG5-Luc
experiment_notes: In vitro assay of inhibitory effect against RORγ transcriptional activity (GAL4-mRORγ LBD luciferase reporter gene assay in CHO cells)
Format: cell-based
test_parameters: GAL4-mRORγ LBD luciferase reporter, CHO cells; read-out: LUC EC50 mRORγ
measured_attribute: EC50 (nM)

COCCC1=CN(C23CCC(C(=O)O)(C2)C3)C(=O)N[C@@]1(C)c1ccc(CCC(C)(C)C)c(C(F)(F)F)c1 :: 36

[a] CC(C)(C)CCc1ccc([C@]2(C)NC(=O)N(c3ccc(C(=O)O)cc3)C=C2CCCOC(C)(C)C)cc1Cl
[b] CC(C)(C)CCc1ccc([C@]2(C)NC(=O)N(CCC(N)=O)C=C2[C@H]2C[C@@H](C(=O)O)C2)cc1Cl
// query Quick check, higher EC50 between a and b ? Give the label under which the chosen entry appears.
// result b
(b: 779 nM, a: 366 nM)

[P] CC(C)C1=CN(C2CN(C(=O)OC(C)(C)C)CC2C(=O)O)C(=O)N[C@@]1(C)c1ccc(CCC(C)(C)C)c(Cl)c1 (single isomer, unassigned)
[Q] COC(C)CC1=CN(CCC(=O)O)C(=O)N[C@@]1(C)c1ccc([C@H]2C[C@@H](C(C)(C)C)C2)c(Cl)c1 (stereo partly shown)
[R] CC(C)C1=CN(CCC(=O)O)C(=O)N[C@@]1(C)c1ccc(CC2CCOCC2)c(Cl)c1
// query Please rank these compounds by EC50 in descending order. Write the labels, ordered according to the request.
// result P, R, Q

* * *

system: human RORγ (Homo sapiens, UniProt P51449)
Construct: human RORγ, from Ser253 to Lys518; expressed in transfected cells; host or cells: CHO cells (Chinese hamster ovary), transient co-transfection with pG5-Luc
Sequence (P51449 253-518): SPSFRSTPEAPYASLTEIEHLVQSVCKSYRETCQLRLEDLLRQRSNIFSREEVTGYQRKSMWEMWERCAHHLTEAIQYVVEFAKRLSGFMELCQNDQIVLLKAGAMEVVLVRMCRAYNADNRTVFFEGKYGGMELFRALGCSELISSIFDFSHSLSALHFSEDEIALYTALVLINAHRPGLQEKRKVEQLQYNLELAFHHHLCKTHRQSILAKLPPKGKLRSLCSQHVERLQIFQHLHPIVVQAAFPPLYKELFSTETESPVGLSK
experiment_notes: In vitro assay of inhibitory effect against RORγ transcriptional activity (GAL4-hRORγ LBD luciferase reporter gene assay in CHO cells)
Format: cell-based
test_parameters: GAL4-hRORγ LBD luciferase reporter, CHO cells; read-out: LUC EC50 hRORγ
measured_attribute: EC50 (nM)

COC(=O)[C@H]1C[C@H](N2C=C([C@H]3C[C@@H](CO)C3)[C@](C)(c3ccc(CCC(C)(C)C)c(Cl)c3)NC2=O)C1 (single isomer, unassigned) [Example 312] :: 248

[A] C[C@@]1(c2ccc(OCCC3CC3)c(Cl)c2)NC(=O)N(c2ccc(C(=O)O)cc2)C=C1C1CC(F)(F)C1 [Example 350]
[B] CC(C)C1=CN(c2ccc(C(=O)O)cc2)C(=O)N[C@@]1(C)c1cc(F)c(OCC(C)(C)C)c(Cl)c1 [Example 193]
[C] COC(=O)[C@H]1C[C@H](N2C=C(C(C)(C)CCCO)[C@](C)(c3ccc(CCC(C)(C)C)c(Cl)c3)NC2=O)C1 (single isomer, unassigned) [Example 191]
// query Please rank these compounds by EC50 in descending order. Write the labels, ordered according to the request.
// result A, C, B
(A: 109 nM, C: 45 nM, B: 18 nM)

[I] CC(C)C1=CN(CCC(=O)O)C(=O)N[C@@]1(C)c1ccc(C#CC(C)(C)C)c(Cl)c1 [Example 317]
[II] CC(C)C1=CN(c2ccc(F)c(C(=O)O)c2)C(=O)N[C@@]1(C)c1ccc(CCC(C)(C)C)c(Cl)c1 [Example 208]
// query Quick check, higher EC50 between I and II ? Give the label under which the chosen entry appears.
// result I

* * *

system: human RORγ (Homo sapiens)
Construct: human RORγ, from Ser253 to Lys518; expressed in transfected cells; host or cells: CHO cells (Chinese hamster ovary), transient co-transfection with pG5-Luc
experiment_notes: In vitro assay of inhibitory effect against RORγ transcriptional activity (GAL4-hRORγ LBD luciferase reporter gene assay in CHO cells)
Format: cell-based
test_parameters: GAL4-hRORγ LBD luciferase reporter, CHO cells; read-out: LUC EC50 hRORγ
measured_attribute: EC50 (nM)

These recorded examples may help you get a feel for the data.
COCC(C)C1=CN(CCC(=O)O)C(=O)N[C@@]1(C)c1ccc(CCC(C)(C)C)c(Cl)c1 (single isomer, unassigned) [Example 305] :: 3
CC(C)CC1=CN(CCC(=O)O)C(=O)N[C@@]1(C)c1ccc(OCC(C)(C)C)c(Cl)c1F :: 60
COCCN1C=C(c2cncc(C(=O)O)c2)[C@](C)(c2ccc(CCC(C)(C)C)c(Cl)c2)NC1=O :: 542

[P] CC(C)C1=CN(CCC(=O)O)C(=O)N[C@@]1(C)c1ccc(C2CCC(F)(F)CC2)c(Cl)c1
[Q] CC(C)(C)CCc1ccc([C@]2(C)NC(=O)N(CCC(=O)O)C=C2[C@H]2C[C@@H](CO)C2)cc1Cl
// query Hi there, can you help? I need to know whether P or Q has lower measured EC50. Give the label under which the chosen entry appears.
// result P
(P: 35 nM, Q: 112 nM)

[A] CC(C)C1=CN([C@H]2CC[C@H](CC(=O)O)CC2)C(=O)N[C@@]1(C)c1ccc(CCC(C)(C)C)c(Cl)c1
[B] CC(C)C1=CN(C2CCC(C(=O)O)C2)C(=O)N[C@@]1(C)c1ccc(CCC(C)(C)C)c(Cl)c1 (single isomer, unassigned) [Example 278]
// query Quick check, higher EC50 between A and B ? Give the label under which the chosen entry appears.
// result A

[A] CC(C)C1=CN(C2CCCC(C(=O)O)C2)C(=O)N[C@@]1(C)c1ccc(CCC(C)(C)C)c(Cl)c1 (single isomer, unassigned) [Example 254]
[B] COCCC1=CN(C23CCC(C(=O)O)(C2)C3)C(=O)N[C@@]1(C)c1ccc([C@H]2C[C@@H](C(C)(C)C)C2)c(Cl)c1 (single isomer, unassigned)
[C] CC(C)(C)CCc1ccc([C@]2(C)NC(=O)N(c3ccc(C(=O)O)cc3)C=C2CCCOC(C)(C)C)cc1Cl
[D] CC(C)C1=CN(c2cc(C(=O)O)on2)C(=O)N[C@@]1(C)c1ccc(CCC(C)(C)C)c(Cl)c1
[E] CC(C)CCOc1ccc([C@]2(C)NC(=O)N(c3ccc(C(=O)O)cc3)C=C2C2CC(F)(F)C2)cc1Cl
// query Please rank these compounds by EC50 in descending order. Write the labels, ordered according to the request.
// result C, D, E, A, B

[A] CC(C)C1=CN(c2ccc(C(=O)O)cc2)C(=O)N[C@@]1(C)c1ccc(CCC(C)(C)C)c(F)c1
[B] CC(C)(C)CCc1ccc([C@]2(C)NC(=O)N([C@H]3C[C@H](C(=O)O)C3)C=C2[C@H]2C[C@@H](CO)C2)cc1Cl
[C] CC(C)C1=CN(CCC(=O)O)C(=O)N[C@@]1(C)c1ccc(C2=CCC(F)(F)CC2)c(Cl)c1
[D] COCCC1=CN(c2ccc(C(=O)O)cn2)C(=O)N[C@@]1(C)c1ccc(CC2CCCCC2)c(Cl)c1
[E] CC(C)C1=CN(C23CCC(C(=O)O)(C2)C3)C(=O)N[C@@]1(C)c1ccc(CCC(C)(C)C)c(C(F)(F)F)c1
// query Please rank these compounds by EC50 in descending order. Write the labels, ordered according to the request.
// result B, C, E, A, D
